system.name: Eukaryotic elongation factor 2 kinase (Homo sapiens)
Sequence (O00418 whole entry): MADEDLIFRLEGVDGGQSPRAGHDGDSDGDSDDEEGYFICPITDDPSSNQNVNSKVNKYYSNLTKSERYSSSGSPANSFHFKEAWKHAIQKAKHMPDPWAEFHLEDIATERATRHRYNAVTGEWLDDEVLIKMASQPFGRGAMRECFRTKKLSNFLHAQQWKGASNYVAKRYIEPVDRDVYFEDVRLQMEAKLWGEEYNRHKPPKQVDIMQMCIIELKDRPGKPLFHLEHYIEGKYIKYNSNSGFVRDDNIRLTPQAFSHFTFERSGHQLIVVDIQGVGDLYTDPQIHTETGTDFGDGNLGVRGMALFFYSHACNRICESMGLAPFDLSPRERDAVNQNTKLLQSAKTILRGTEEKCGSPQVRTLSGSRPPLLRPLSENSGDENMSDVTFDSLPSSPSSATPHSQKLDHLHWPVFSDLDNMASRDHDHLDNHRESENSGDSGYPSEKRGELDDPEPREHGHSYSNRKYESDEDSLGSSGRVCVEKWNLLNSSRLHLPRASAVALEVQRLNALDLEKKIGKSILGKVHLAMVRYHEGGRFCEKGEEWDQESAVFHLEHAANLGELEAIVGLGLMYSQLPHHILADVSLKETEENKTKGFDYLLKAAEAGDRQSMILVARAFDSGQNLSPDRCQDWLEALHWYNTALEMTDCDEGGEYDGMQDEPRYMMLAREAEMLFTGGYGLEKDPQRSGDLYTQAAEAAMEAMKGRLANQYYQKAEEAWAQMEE
measurement.protocol: Inhibition of eEF2K (unknown origin) using peptide MH-1 as substrate after 2 hrs by ADP-Glo luminescent assay
I'd appreciate it if you marked entries rule met when IC50 is lower than 30 µM and rule not met when it is not.

N#Cc1ccc(S(=O)(=O)NC(CC(=O)O)c2ccccc2F)cc1 (stereo unspecified); rule met
O=C(O)CC(NS(=O)(=O)c1cccc([N+](=O)[O-])c1)c1ccccc1 (stereo unspecified); rule not met
CC(C)(C)c1ccc(S(=O)(=O)NC(CC(=O)O)c2ccccc2)cc1 (stereo unspecified); rule not met
O=C(O)CC(NS(=O)(=O)c1cc(F)cc(F)c1)c1ccc(Cl)cc1Cl (stereo unspecified); rule met
O=C(O)CC(NS(=O)(=O)c1ccc(F)cc1)c1ccccc1 (stereo unspecified); rule not met
CC(C)(C)c1ccc(C(CC(=O)O)NS(=O)(=O)c2ccccc2)cc1 (stereo unspecified); rule not met
O=C(O)CC(NC(=O)c1c(Cl)cccc1Cl)c1ccccc1 (stereo unspecified); rule not met
COc1ccccc1C(=O)NC(CC(=O)O)c1ccc(C(C)(C)C)cc1 (stereo unspecified); rule not met
O=C(O)CC(NC(=O)c1ccc(Cl)cc1Cl)c1ccccc1F (stereo unspecified); rule not met
O=C(O)CC(NC(=O)c1ccc(Cl)cc1Cl)c1ccc(Cl)cc1Cl (stereo unspecified); rule met

Next compound, please.
Lookup: Is IC50 strictly under 30 µM for the entry O=C(O)CC(NS(=O)(=O)c1ccccc1)c1ccccc1 (stereo unspecified) ?
Found: rule not met

Cited source for all entries: ChEMBL document CHEMBL4138216
